Experiment: Displacement of fluorescein-neomycin from d(G4C4)2 DNA at 200 nM by fluorescence assay
Active and inactive are the calls of the source. No cut-off for these calls is given here.
Bench note: report the call from active, inactive

Record excerpt, results attached:
NCC1O[C@H](O[C@H]2[C@@H](O)[C@H](O[C@@H]3[C@@H](O)[C@H](N)C[C@H](N)[C@H]3O[C@H]3O[C@H](CN)[C@@H](O)[C@H](O)[C@H]3N)O[C@@H]2CNC(=S)NCCCCCCCCCCNC(=S)NCc2ccc3c(c2)C(=O)c2ccccc2C3=O)[C@H](N)[C@@H](O)[C@@H]1O (some centres not stated)    active
NCC1O[C@H](O[C@H]2[C@@H](O)[C@H](O[C@H]3[C@H](O)[C@@H](N)C[C@@H](N)[C@@H]3O[C@H]3O[C@H](CN)[C@@H](O)[C@H](O)[C@H]3N)O[C@@H]2CO)[C@H](N)[C@@H](O)[C@@H]1O (some centres not stated)    inactive
NCC1O[C@H](O[C@H]2[C@@H](O)[C@H](O[C@@H]3[C@@H](O)[C@H](N)C[C@H](N)[C@H]3O[C@H]3O[C@H](CN)[C@@H](O)[C@H](O)[C@H]3N)O[C@@H]2CNC(=S)NCCCNC(=S)NCc2ccc3c(c2)C(=O)c2ccccc2C3=O)[C@H](N)[C@@H](O)[C@@H]1O (some centres not stated)    active
O=C1c2ccccc2C(=O)c2ccccc21    inactive
NCC1O[C@H](O[C@H]2[C@@H](O)[C@H](O[C@@H]3[C@@H](O)[C@H](N)C[C@H](N)[C@H]3O[C@H]3O[C@H](CN)[C@@H](O)[C@H](O)[C@H]3N)O[C@@H]2CSCCNC(=S)NCCNC(=S)NCc2ccc3c(c2)C(=O)c2ccccc2C3=O)[C@H](N)[C@@H](O)[C@@H]1O (some centres not stated)    active

### Prompt What classification did NCC1O[C@H](O[C@H]2[C@@H](O)[C@H](O[C@@H]3[C@@H](O)[C@H](N)C[C@H](N)[C@H]3O[C@H]3O[C@H](CN)[C@@H](O)[C@H](O)[C@H]3N)O[C@@H]2CNC(=S)Nc2ccc3c(c2)C(=O)c2ccccc2C3=O)[C@H](N)[C@@H](O)[C@@H]1O (some centres not stated) end up with in this test?
### Response active

### Prompt What classification did NCC1O[C@H](O[C@H]2[C@@H](O)[C@H](O[C@@H]3[C@@H](O)[C@H](N)C[C@H](N)[C@H]3O[C@H]3O[C@H](CN)[C@@H](O)[C@H](O)[C@H]3N)O[C@@H]2CSCCNC(=S)Nc2ccc3c(c2)C(=O)c2ccccc2C3=O)[C@H](N)[C@@H](O)[C@@H]1O (some centres not stated) end up with in this test?
### Response active
